// reported inhibition at 10 µM per item
- System: human peripheral blood mononuclear cells (PBMC)
- assay: Human T-cell proliferation in vitro (3H-thymidine incorporation)
- Format: cell-based
- testConditions: Homo sapiens, PBMC, PMA + ionomycin stimulated, compound 10 μM; read-out: Percentage of inhibition of proliferation of stimulated PBMC
Numeric only. Scale: %

Example molecules with recorded inhibition at 10 µM:
molecule	value
CC[C@H]1OC(=O)[C@H](C)[C@@H](O[C@H]2C[C@@](C)(OC)[C@@H](O)[C@H](C)O2)[C@H](C)[C@@H](O[C@@H]2O[C@H](C)C[C@H](N(C)C)[C@H]2O)[C@](C)(O)C[C@@H](C)CN(C(=S)Nc2ccccc2F)[C@H](C)[C@@H](O)[C@]1(C)O	20
CC[C@H]1OC(=O)[C@H](C)[C@@H](O[C@H]2C[C@@](C)(OC)[C@@H](O)[C@H](C)O2)[C@H](C)[C@@H](O[C@@H]2O[C@H](C)C[C@H](N(C)C)[C@H]2O)[C@](C)(OC)C[C@@H](C)C(=O)[C@H](C)[C@@H](O)[C@]1(C)O [Clarithromycin, clarithromycin, reference compound]	9
CC[C@H]1OC(=O)[C@H](C)[C@@H](O)[C@H](C)[C@@H](O[C@@H]2O[C@H](C)C[C@H](N(C)C)[C@H]2O)[C@](C)(O)C[C@@H](C)CN(C(=O)Nc2cccc(C(F)(F)F)c2)[C@H](C)[C@@H](O)[C@]1(C)O	21
CC[C@H]1OC(=O)[C@H](C)[C@@H](O[C@H]2C[C@@](C)(OC)[C@@H](O)[C@H](C)O2)[C@H](C)[C@@H](O[C@@H]2O[C@H](C)C[C@H](N(C)C)[C@H]2O)[C@](C)(O)C[C@@H](C)CN(C(=S)Nc2cccc(Br)c2)[C@H](C)[C@@H](O)[C@]1(C)O	0

Now for the molecule whose inhibition at 10 µM we want.
Q: For the molecule CC[C@H]1OC(=O)[C@H](C)[C@@H](O[C@H]2C[C@@](C)(OC)[C@@H](O)[C@H](C)O2)[C@H](C)[C@@H](O[C@@H]2O[C@H](C)C[C@H](N(C)C)[C@H]2O)[C@](C)(O)C[C@@H](C)CN(C)[C@H](C)[C@@H](O)[C@]1(C)O [Azithromycin, azithromycin, reference compound] , give its reported inhibition at 10 µM.
A: 9

====

- Test system: IL-6
- assay: Inhibition of IL-6 production by stimulated human peripheral blood leukocytes in vitro
- Format: cell-based
- testConditions: Homo sapiens, Leukocyte, PBL, LPS stimulated, compound 50 μM; read-out: Percentage of inhibition of IL-6 production
quantityMeasured: inhibition at 50 µM (%)
Numeric only. Scale: %

Example compounds with recorded inhibition at 50 µM:
compound	value
CC[C@H]1OC(=O)[C@H](C)[C@@H](O[C@H]2C[C@@](C)(OC)[C@@H](O)[C@H](C)O2)[C@H](C)[C@@H](O[C@@H]2O[C@H](C)C[C@H](N(C)C)[C@H]2O)[C@](C)(O)C[C@@H](C)CN(C(=S)Nc2cccc(C(F)(F)F)c2)[C@H](C)[C@@H](O)[C@]1(C)O [Compound 4]	100
CC[C@H]1OC(=O)[C@H](C)[C@@H](O[C@H]2C[C@@](C)(OC)[C@@H](O)[C@H](C)O2)[C@H](C)[C@@H](O[C@@H]2O[C@H](C)C[C@H](N(C)C)[C@H]2O)[C@](C)(O)C[C@@H](C)CN(C(=O)Nc2ccc(C(F)(F)F)cc2)[C@H](C)[C@@H](O)[C@]1(C)O [Compound 9]	100
CC[C@H]1OC(=O)[C@H](C)[C@@H](O[C@H]2C[C@@](C)(OC)[C@@H](O)[C@H](C)O2)[C@H](C)[C@@H](O[C@@H]2O[C@H](C)C[C@H](N(C)C)[C@H]2O)[C@](C)(OC)C[C@@H](C)C(=O)[C@H](C)[C@@H](O)[C@]1(C)O [Clarithromycin, clarithromycin, reference compound]	0

Now for the compound whose inhibition at 50 µM we want.
Q: Lab note: record inhibition at 50 µM of CC[C@H]1OC(=O)[C@H](C)[C@@H](O[C@H]2C[C@@](C)(OC)[C@@H](O)[C@H](C)O2)[C@H](C)[C@@H](O[C@@H]2O[C@H](C)C[C@H](N(C)C)[C@H]2O)[C@](C)(O)C[C@@H](C)CN(C(=S)Nc2cccc(Br)c2)[C@H](C)[C@@H](O)[C@]1(C)O [Compound 6] tested on IL-6.
A: 100

====

- System: TNF-α
- assay: Inhibition of TNF-α production by stimulated human peripheral blood leukocytes in vitro
- Assay type: cell-based
- testConditions: Homo sapiens, Leukocyte, PBL, LPS stimulated, compound 10 μM; read-out: Percentage of inhibition of TNF-α production
// reported inhibition at 10 µM per item
Please make sure the unit comes right after the number.

compound	value
CC[C@H]1OC(=O)[C@H](C)[C@@H](O)[C@H](C)[C@@H](O[C@@H]2O[C@H](C)C[C@H](N(C)C)[C@H]2O)[C@](C)(O)C[C@@H](C)CN(C(=O)Nc2cccc(C(F)(F)F)c2)[C@H](C)[C@@H](O)[C@]1(C)O	0%
CC[C@H]1OC(=O)[C@H](C)[C@@H](O[C@H]2C[C@@](C)(OC)[C@@H](O)[C@H](C)O2)[C@H](C)[C@@H](O[C@@H]2O[C@H](C)C[C@H](N(C)C)[C@H]2O)[C@](C)(O)C[C@@H](C)CN(C(=O)Nc2ccc(C(F)(F)F)cc2)[C@H](C)[C@@H](O)[C@]1(C)O	23%
CC[C@H]1OC(=O)[C@H](C)[C@@H](O[C@H]2C[C@@](C)(OC)[C@@H](O)[C@H](C)O2)[C@H](C)[C@@H](O[C@@H]2O[C@H](C)C[C@H](N(C)C)[C@H]2O)[C@](C)(O)C[C@@H](C)CN(C(=S)Nc2cccc(Br)c2)[C@H](C)[C@@H](O)[C@]1(C)O	74%

Q: For the compound CC[C@H]1OC(=O)[C@H](C)[C@@H](O[C@H]2C[C@@](C)(OC)[C@@H](O)[C@H](C)O2)[C@H](C)[C@@H](O[C@@H]2O[C@H](C)C[C@H](N(C)C)[C@H]2O)[C@](C)(O)C[C@@H](C)CN(C(=O)NC(C)c2cccc3ccccc23)[C@H](C)[C@@H](O)[C@]1(C)O (some centres unmarked) , give its reported inhibition at 10 µM.
A: 28%

Q: For the compound CC[C@H]1OC(=O)[C@H](C)[C@@H](O[C@H]2C[C@@](C)(OC)[C@@H](O)[C@H](C)O2)[C@H](C)[C@@H](O[C@@H]2O[C@H](C)C[C@H](N(C)C)[C@H]2O)[C@](C)(OC)C[C@@H](C)C(=O)[C@H](C)[C@@H](O)[C@]1(C)O [Clarithromycin, clarithromycin, reference compound] , give its reported inhibition at 10 µM.
A: 0%

====

- System: TNF-α
- assay: Inhibition of TNF-α production by stimulated human peripheral blood leukocytes in vitro
- Format: cell-based
- testConditions: Homo sapiens, Leukocyte, PBL, LPS stimulated, compound 50 μM; read-out: Percentage of inhibition of TNF-α production
// reported inhibition at 50 µM per item
Numeric only. Scale: %

Example molecules with recorded inhibition at 50 µM:
molecule	inhibition at 50 µM, %
CC[C@H]1OC(=O)[C@H](C)[C@@H](O)[C@H](C)[C@@H](O[C@@H]2O[C@H](C)C[C@H](N(C)C)[C@H]2O)[C@](C)(O)C[C@@H](C)CN(C(=O)Nc2cccc(C(F)(F)F)c2)[C@H](C)[C@@H](O)[C@]1(C)O	0
CC[C@H]1OC(=O)[C@H](C)[C@@H](O[C@H]2C[C@@](C)(OC)[C@@H](O)[C@H](C)O2)[C@H](C)[C@@H](O[C@@H]2O[C@H](C)C[C@H](N(C)C)[C@H]2O)[C@](C)(O)C[C@@H](C)CN(C)[C@H](C)[C@@H](O)[C@]1(C)O [Azithromycin, azithromycin, reference compound]	20
CC[C@H]1OC(=O)[C@H](C)[C@@H](O[C@H]2C[C@@](C)(OC)[C@@H](O)[C@H](C)O2)[C@H](C)[C@@H](O[C@@H]2O[C@H](C)C[C@H](N(C)C)[C@H]2O)[C@](C)(O)C[C@@H](C)CN(C(=O)Nc2ccc(C(F)(F)F)cc2)[C@H](C)[C@@H](O)[C@]1(C)O	100

Q: For the molecule CC[C@H]1OC(=O)[C@H](C)[C@@H](O[C@H]2C[C@@](C)(OC)[C@@H](O)[C@H](C)O2)[C@H](C)[C@@H](O[C@@H]2O[C@H](C)C[C@H](N(C)C)[C@H]2O)[C@](C)(O)C[C@@H](C)CN(C(=S)Nc2ccccc2F)[C@H](C)[C@@H](O)[C@]1(C)O , give its reported inhibition at 50 µM.
A: 45

Value source: patent US20080200403A1
